Biological target: 5-HT1A receptor (Homo sapiens)
Construct: expressed in transfected cells; host or cells: CHO-K1
Sequence (P08908 1-422): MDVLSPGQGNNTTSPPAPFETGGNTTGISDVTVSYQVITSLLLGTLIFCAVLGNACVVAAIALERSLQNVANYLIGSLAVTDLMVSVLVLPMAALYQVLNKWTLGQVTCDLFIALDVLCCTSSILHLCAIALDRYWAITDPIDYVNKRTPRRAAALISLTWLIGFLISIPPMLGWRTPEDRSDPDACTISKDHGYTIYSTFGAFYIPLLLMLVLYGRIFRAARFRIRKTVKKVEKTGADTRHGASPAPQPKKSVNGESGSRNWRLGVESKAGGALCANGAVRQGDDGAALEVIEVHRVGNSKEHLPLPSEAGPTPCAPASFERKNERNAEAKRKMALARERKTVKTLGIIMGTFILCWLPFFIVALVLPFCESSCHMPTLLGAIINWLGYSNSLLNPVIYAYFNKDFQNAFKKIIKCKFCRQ
Assay: Serotonin receptor binding, [3H] 8-OH-DPAT, CHO-K1 membranes
Readout Kind: Ki (nM)

{"Chemical Structure": "COc1ccc2[nH]cc(CCNC(=O)c3cc(=O)c(O)co3)c2c1", "Readout Kind": "Ki", "Assay Value": 390}
